Measured MFI accompanies every entry in the list below.
- targetEntity: T1, IL-12 (Human IL12 (His Tag)), Sino Biological Cat. No. CT-050-H08H-20 (human, UniProt P29460 23-328; P29459 23-219)
- T1 construct: Bought His-tagged p35/p40 heterodimer
- T1 sequence (looked up) 1: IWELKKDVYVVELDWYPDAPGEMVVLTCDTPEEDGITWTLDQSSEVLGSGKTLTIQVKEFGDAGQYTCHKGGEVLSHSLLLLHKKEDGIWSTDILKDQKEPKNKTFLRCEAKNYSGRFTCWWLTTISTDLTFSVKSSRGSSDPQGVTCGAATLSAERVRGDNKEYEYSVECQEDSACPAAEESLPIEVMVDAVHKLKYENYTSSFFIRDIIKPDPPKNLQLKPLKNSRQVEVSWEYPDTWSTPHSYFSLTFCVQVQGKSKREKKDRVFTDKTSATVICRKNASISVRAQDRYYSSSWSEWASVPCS
- T1 sequence (looked up) 2: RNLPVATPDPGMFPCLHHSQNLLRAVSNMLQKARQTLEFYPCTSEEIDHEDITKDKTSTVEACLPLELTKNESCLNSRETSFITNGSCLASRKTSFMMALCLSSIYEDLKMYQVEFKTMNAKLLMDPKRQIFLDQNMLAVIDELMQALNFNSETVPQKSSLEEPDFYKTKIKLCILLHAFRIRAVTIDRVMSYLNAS
- assayRemarks: FACS competition, IL-12-His 20 nM on 293T-IL-12RB1&IL-23R cells, antibody 30 µg/mL

# binder, MFI
measured = [
    ("H5L14 (antibody, human IgG1, kappa, V domains shown, IgG1/kappa) VH: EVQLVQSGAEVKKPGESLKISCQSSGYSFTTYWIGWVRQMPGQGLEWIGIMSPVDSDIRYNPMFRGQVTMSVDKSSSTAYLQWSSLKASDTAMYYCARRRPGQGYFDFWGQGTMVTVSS VL: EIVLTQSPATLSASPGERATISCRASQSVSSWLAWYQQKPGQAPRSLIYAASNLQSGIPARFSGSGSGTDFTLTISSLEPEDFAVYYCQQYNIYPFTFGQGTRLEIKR", 34.9),
    ("H5L11 (antibody, human IgG1, kappa, V domains shown, IgG1/kappa) VH: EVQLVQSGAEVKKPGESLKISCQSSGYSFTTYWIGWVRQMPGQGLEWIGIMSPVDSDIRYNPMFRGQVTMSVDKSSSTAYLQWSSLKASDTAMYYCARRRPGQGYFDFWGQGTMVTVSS VL: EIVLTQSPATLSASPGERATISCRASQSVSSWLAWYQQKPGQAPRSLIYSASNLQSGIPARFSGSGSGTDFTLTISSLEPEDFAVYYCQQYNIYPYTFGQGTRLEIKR", 33),
    ("H5L12 (antibody, human IgG1, kappa, V domains shown, IgG1/kappa) VH: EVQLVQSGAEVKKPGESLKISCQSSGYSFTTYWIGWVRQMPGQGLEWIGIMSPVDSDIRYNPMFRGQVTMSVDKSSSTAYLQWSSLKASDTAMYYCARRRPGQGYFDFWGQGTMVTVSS VL: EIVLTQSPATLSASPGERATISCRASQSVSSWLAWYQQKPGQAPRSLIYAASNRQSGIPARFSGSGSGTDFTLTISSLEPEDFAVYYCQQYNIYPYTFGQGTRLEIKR", 31.8),
]
